These data points were gathered from ChEMBL document CHEMBL1781959.

Entries annotated with measured Activity
tested on: TK-10; assay: Anticancer activity against human TK10 cells assessed as cell growth promotion at 10^-5 M after 48 hrs by SRB assay relative to control; type: functional

{"columns": ["CPD SMILES", "Activity, %"],
 "data": [
  ["O=C(Nc1ccccc1C(=O)Nc1ccc(/C=C/c2ccc(Cl)cc2)cc1)c1ccco1", 127],
  ["O=C(O)c1ccc(-n2c(-c3ccco3)nc3ccccc3c2=O)cc1", 94.73],
  ["COc1ccc(OC)c(/C=C/c2nc3ccccc3nc2SCc2nc3ccccc3[nH]2)c1", 56.15],
  ["O=c1c2ccccc2nc(-c2ccco2)n1/N=C/c1ccccc1Cl", 73.98],
  ["NS(=O)(=O)c1ccc(NC(=O)c2ccccc2NC(=O)c2ccco2)cc1", 102],
  ["O=C(Nc1ccccc1C(=O)Nc1ccc(/C=C/c2ccc(O)cc2)cc1)c1ccccc1", 100],
  ["O=c1c2ccccc2nc(-c2ccco2)n1O", 98.03],
  ["COc1cc(/C=C/c2ccc(NC(=O)c3ccccc3NC(=O)c3ccccc3)cc2)ccc1O", 97.64],
  ["N#Cc1ccc(/C=C/c2nc3ccccc3nc2SCc2nc3ccccc3[nH]2)cc1", 86.49],
  ["Oc1ccccc1/C=C/c1nc2ccccc2nc1SCc1nc2ccccc2[nH]1", 43.48],
  ["O=C(Nc1ccccc1C(=O)Nc1ccc(/C=C/c2ccc(Cl)cc2)cc1)c1ccccc1", 123],
  ["CN(C)c1ccc(/C=C/c2nc3ccccc3nc2SCc2nc3ccccc3[nH]2)cc1", 113]
]}

* * *

Entries annotated with measured Activity
test system: SR; test: Anticancer activity against human SR cells assessed as cell growth promotion at 10^-5 M after 48 hrs by SRB assay relative to control; type: functional
MEASURED METRIC: Activity (%)

{"columns": ["CPD SMILES", "UNIT STRING", "QUANTITATIVE RESULT"],
 "data": [
  ["Oc1ccccc1/C=C/c1nc2ccccc2nc1SCc1nc2ccccc2[nH]1", "%", 44.46],
  ["COc1cc(/C=C/c2ccc(NC(=O)c3ccccc3NC(=O)c3ccccc3)cc2)ccc1O", "%", 106.41],
  ["O=C(Nc1ccccc1C(=O)Nc1ccc(/C=C/C=C/c2ccccc2)cc1)c1ccccc1", "%", 70.89],
  ["N#Cc1ccc(/C=C/c2ccc(NC(=O)c3ccccc3NC(=O)c3ccco3)cc2)cc1", "%", 109],
  ["O=C(Nc1ccccc1C(=O)Nc1ccc(/C=C/c2ccc(Cl)cc2)cc1)c1ccco1", "%", 109],
  ["C(=C\\c1nc2ccccc2nc1SCc1nc2ccccc2[nH]1)/c1ccccc1", "%", 83.8],
  ["O=C(Nc1ccccc1C(=O)Nc1ccc(/C=C/c2ccc(Cl)cc2)cc1)c1ccccc1", "%", 81.19],
  ["N#Cc1ccc(/C=C/c2nc3ccccc3nc2SCc2nc3ccccc3[nH]2)cc1", "%", 97.73],
  ["Brc1cccc(/C=C/c2nc3ccccc3nc2SCc2nc3ccccc3[nH]2)c1", "%", 97.29],
  ["CN(C)c1ccc(/C=C/c2nc3ccccc3nc2SCc2nc3ccccc3[nH]2)cc1", "%", 79.22],
  ["O=c1c2ccccc2nc(-c2ccco2)n1O", "%", 94.7],
  ["COc1ccc(OC)c(/C=C/c2nc3ccccc3nc2SCc2nc3ccccc3[nH]2)c1", "%", 81.4]
]}

* * *

test system: HCC 2998; test: Anticancer activity against human HCC2998 cells assessed as cell growth promotion at 10^-5 M after 48 hrs by SRB assay relative to control; format: functional

{"columns": ["CPD SMILES", "TARGET DESC", "Activity (%)"],
 "data": [
  ["O=C(O)c1ccc(-n2c(-c3ccco3)nc3ccccc3c2=O)cc1", "HCC 2998", 120.31],
  ["Brc1cccc(/C=C/c2nc3ccccc3nc2SCc2nc3ccccc3[nH]2)c1", "HCC 2998", 99.44],
  ["O=C(Nc1ccccc1C(=O)Nc1ccc(/C=C/c2ccc(O)cc2)cc1)c1ccccc1", "HCC 2998", 94.19],
  ["O=C(Nc1ccccc1C(=O)Nc1ccc(/C=C/c2ccc(Cl)cc2)cc1)c1ccccc1", "HCC 2998", 78.38],
  ["COc1cc(/C=C/c2ccc(NC(=O)c3ccccc3NC(=O)c3ccccc3)cc2)ccc1O", "HCC 2998", 99.7]
]}

* * *

system: 786-0; test: Anticancer activity against human 786-0 cells assessed as cell growth promotion at 10^-5 M after 48 hrs by SRB assay relative to control; format: functional

{"columns": ["CPD SMILES", "TARGET DESC", "Activity"],
 "data": [
  ["O=C(O)c1ccc(-n2c(-c3ccco3)nc3ccccc3c2=O)cc1", "786-0", "105.17%"],
  ["COc1ccc(OC)c(/C=C/c2nc3ccccc3nc2SCc2nc3ccccc3[nH]2)c1", "786-0", "90.52%"],
  ["N#Cc1ccc(/C=C/c2ccc(NC(=O)c3ccccc3NC(=O)c3ccco3)cc2)cc1", "786-0", "115%"],
  ["Oc1ccc(/C=C/c2nc3ccccc3nc2SCc2nc3ccccc3[nH]2)cc1", "786-0", "94.31%"],
  ["O=c1c2ccccc2nc(-c2ccco2)n1/N=C/c1ccccc1Cl", "786-0", "26.39%"]
]}

* * *

system: SN12C; assay: Anticancer activity against human SN12C cells assessed as cell growth promotion at 10^-5 M after 48 hrs by SRB assay relative to control; format: functional
Everything with Activity lower than 90% is N; everything else, including exactly 90%, is Y.

{"columns": ["CPD SMILES", "LABEL"],
 "data": [
  ["O=C(Nc1ccccc1C(=O)Nc1ccc(/C=C/c2ccc(O)cc2)cc1)c1ccccc1", "N"],
  ["COc1cc(/C=C/c2ccc(NC(=O)c3ccccc3NC(=O)c3ccccc3)cc2)ccc1O", "Y"],
  ["O=C(Nc1ccccc1C(=O)Nc1ccc(/C=C/c2ccc(Cl)cc2)cc1)c1ccccc1", "N"],
  ["N#Cc1ccc(/C=C/c2nc3ccccc3nc2SCc2nc3ccccc3[nH]2)cc1", "Y"],
  ["O=C(Nc1ccccc1C(=O)Nc1ccc(/C=C/c2ccc(Cl)cc2)cc1)c1ccco1", "Y"],
  ["C(=C\\c1nc2ccccc2nc1SCc1nc2ccccc2[nH]1)/c1ccccc1", "N"],
  ["O=C(O)c1ccc(-n2c(-c3ccco3)nc3ccccc3c2=O)cc1", "Y"],
  ["Oc1ccccc1/C=C/c1nc2ccccc2nc1SCc1nc2ccccc2[nH]1", "N"]
]}

* * *

test system: 786-0; test: Anticancer activity against human 786-0 cells assessed as cell growth promotion at 10^-5 M after 48 hrs by SRB assay relative to control; format: functional
Everything with Activity lower than 90% is no (0); everything else, including exactly 90%, is yes (1).

{"columns": ["CPD SMILES", "TARGET DESC", "LABEL"],
 "data": [
  ["O=C(Nc1ccccc1C(=O)Nc1ccc(/C=C/c2ccc(Cl)cc2)cc1)c1ccccc1", "786-0", "no (0)"],
  ["NS(=O)(=O)c1ccc(NC(=O)c2ccccc2NC(=O)c2ccco2)cc1", "786-0", "yes (1)"],
  ["O=c1c2ccccc2nc(-c2ccco2)n1O", "786-0", "yes (1)"]
]}

* * *

Entries annotated with measured Activity
test system: SR; assay: Anticancer activity against human SR cells assessed as cell growth promotion at 10^-5 M after 48 hrs by SRB assay relative to control; type: functional

{"columns": ["CPD SMILES", "Activity"],
 "data": [
  ["O=C(Nc1ccccc1C(=O)Nc1ccc(/C=C/c2ccc(O)cc2)cc1)c1ccccc1", "94.97%"],
  ["O=c1c2ccccc2nc(-c2ccco2)n1/N=C/c1ccccc1Cl", "94.12%"],
  ["NS(=O)(=O)c1ccc(NC(=O)c2ccccc2NC(=O)c2ccco2)cc1", "101.4%"],
  ["O=C(O)c1ccc(-n2c(-c3ccco3)nc3ccccc3c2=O)cc1", "92.85%"],
  ["Oc1ccc(/C=C/c2nc3ccccc3nc2SCc2nc3ccccc3[nH]2)cc1", "99.18%"]
]}

* * *

tested on: SNB-19; assay: Anticancer activity against human SNB19 cells assessed as cell growth promotion at 10^-5 M after 48 hrs by SRB assay relative to control; assay type: functional
Entries annotated with measured Activity

{"columns": ["CPD SMILES", "Activity, %"],
 "data": [
  ["COc1ccc(OC)c(/C=C/c2nc3ccccc3nc2SCc2nc3ccccc3[nH]2)c1", 98.9],
  ["Oc1ccccc1/C=C/c1nc2ccccc2nc1SCc1nc2ccccc2[nH]1", 76.6],
  ["O=C(Nc1ccccc1C(=O)Nc1ccc(/C=C/c2ccc(Cl)cc2)cc1)c1ccco1", 107],
  ["O=C(Nc1ccccc1C(=O)Nc1ccc(/C=C/c2ccc(Cl)cc2)cc1)c1ccccc1", 74.25],
  ["O=C(Nc1ccccc1C(=O)Nc1ccc(/C=C/C=C/c2ccccc2)cc1)c1ccccc1", 90.58],
  ["NS(=O)(=O)c1ccc(NC(=O)c2ccccc2NC(=O)c2ccco2)cc1", 110.7],
  ["CN(C)c1ccc(/C=C/c2nc3ccccc3nc2SCc2nc3ccccc3[nH]2)cc1", 96.81],
  ["O=C(O)c1ccc(-n2c(-c3ccco3)nc3ccccc3c2=O)cc1", 91.35],
  ["N#Cc1ccc(/C=C/c2nc3ccccc3nc2SCc2nc3ccccc3[nH]2)cc1", 100],
  ["Brc1cccc(/C=C/c2nc3ccccc3nc2SCc2nc3ccccc3[nH]2)c1", 94.19],
  ["Oc1ccc(/C=C/c2nc3ccccc3nc2SCc2nc3ccccc3[nH]2)cc1", 97.81],
  ["COc1cc(/C=C/c2ccc(NC(=O)c3ccccc3NC(=O)c3ccccc3)cc2)ccc1O", 104],
  ["O=c1c2ccccc2nc(-c2ccco2)n1O", 101.58],
  ["O=C(Nc1ccccc1C(=O)Nc1ccc(/C=C/c2ccc(O)cc2)cc1)c1ccccc1", 86.41],
  ["N#Cc1ccc(/C=C/c2ccc(NC(=O)c3ccccc3NC(=O)c3ccco3)cc2)cc1", 111],
  ["C(=C\\c1nc2ccccc2nc1SCc1nc2ccccc2[nH]1)/c1ccccc1", 82.87],
  ["O=c1c2ccccc2nc(-c2ccco2)n1/N=C/c1ccccc1Cl", 62.14]
]}
